Data provenance: patent US20240279318A1

- subject of test: A*02:02
- assay: SPR; low fitting confidence
value type: Kd

binder="AS170036 VL1VH1-56N98I (scFv) scFv: QSALTQPRSVSGSPGQSVTISCAGTSSDVGSENYVSWYQQHPGKAPKLMIYQVNKRASGVPDRFSGSKSGNTASLTISGLQAEDEADYYCASYRSSDINIVFGGGTKLTVLGGGGSGGGGSGGGGSEVQLVESGGGLVQPGGSLRLSCAASGFTFSSYAMSWVRQAPGKGLEWVSTINSGTNSPYYADSVKGRFTISRDNSKNTLYLQMNSLRAEDTAVYYCAKNFFDGSWFLGPPAMDYWGQGTLVTVSSHHHHHH" reported_value="> 3.2 µM"
